- Study System: Metabotropic glutamate receptor 1 (Homo sapiens)
- Sequence (Q13255 whole entry): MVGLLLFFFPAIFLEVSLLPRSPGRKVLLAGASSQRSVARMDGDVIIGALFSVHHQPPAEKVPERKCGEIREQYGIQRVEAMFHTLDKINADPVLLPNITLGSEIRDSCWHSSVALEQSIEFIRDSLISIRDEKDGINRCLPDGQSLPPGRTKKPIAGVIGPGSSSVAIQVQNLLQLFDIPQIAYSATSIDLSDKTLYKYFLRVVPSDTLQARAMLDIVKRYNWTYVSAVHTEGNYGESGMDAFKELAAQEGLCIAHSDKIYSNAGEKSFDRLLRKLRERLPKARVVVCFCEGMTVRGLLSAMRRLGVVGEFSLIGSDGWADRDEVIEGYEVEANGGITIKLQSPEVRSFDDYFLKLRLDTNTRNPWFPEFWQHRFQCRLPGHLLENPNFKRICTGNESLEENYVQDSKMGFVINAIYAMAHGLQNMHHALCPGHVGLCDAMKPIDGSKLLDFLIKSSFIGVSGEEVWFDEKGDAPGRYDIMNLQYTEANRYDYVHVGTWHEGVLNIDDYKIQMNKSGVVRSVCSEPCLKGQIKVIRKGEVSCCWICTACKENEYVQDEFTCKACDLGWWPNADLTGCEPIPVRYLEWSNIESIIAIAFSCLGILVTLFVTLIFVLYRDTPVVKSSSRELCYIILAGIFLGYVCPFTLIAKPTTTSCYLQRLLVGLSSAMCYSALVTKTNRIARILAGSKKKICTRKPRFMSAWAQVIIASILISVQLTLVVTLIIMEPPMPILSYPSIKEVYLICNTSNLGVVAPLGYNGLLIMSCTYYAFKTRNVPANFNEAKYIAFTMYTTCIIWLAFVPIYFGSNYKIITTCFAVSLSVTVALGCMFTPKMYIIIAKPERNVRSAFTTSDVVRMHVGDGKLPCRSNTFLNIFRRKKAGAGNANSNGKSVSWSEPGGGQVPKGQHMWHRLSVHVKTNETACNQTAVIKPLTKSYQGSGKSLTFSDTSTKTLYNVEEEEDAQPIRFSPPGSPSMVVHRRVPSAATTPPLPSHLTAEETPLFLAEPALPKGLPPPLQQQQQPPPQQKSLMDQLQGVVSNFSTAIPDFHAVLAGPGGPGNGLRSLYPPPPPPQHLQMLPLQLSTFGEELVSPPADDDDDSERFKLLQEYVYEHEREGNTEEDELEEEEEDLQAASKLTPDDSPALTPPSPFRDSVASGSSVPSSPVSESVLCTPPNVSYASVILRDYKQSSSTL
- Assay Name: Antagonistic activity against metabotropic glutamate receptor 1 (mGluR1) was evaluated
Measured Metric: IC50 (µM)

>>> numeric_value("N[C@](CC1c2ccccc2Oc2ccccc21)(C(=O)O)[C@H]1C[C@@H]1C(=O)O")
7.8

I. CCCCCCCCC[C@@H]1[C@H](C(=O)O)[C@H]1C(N)(CC1c2ccccc2Oc2ccccc21)C(=O)O (stereo partly specified)
II. CCCC[C@@H]1[C@H](C(=O)O)[C@H]1C(N)(CC1c2ccccc2Oc2ccccc21)C(=O)O (stereo partly specified)
**Query** Which of the two gives a bigger number for IC50: I or II ? Output the label that corresponds to your choice.
**Result** II

---

- Study System: Metabotropic glutamate receptor 5 (Homo sapiens, UniProt P41594)
- Sequence (P41594 whole entry): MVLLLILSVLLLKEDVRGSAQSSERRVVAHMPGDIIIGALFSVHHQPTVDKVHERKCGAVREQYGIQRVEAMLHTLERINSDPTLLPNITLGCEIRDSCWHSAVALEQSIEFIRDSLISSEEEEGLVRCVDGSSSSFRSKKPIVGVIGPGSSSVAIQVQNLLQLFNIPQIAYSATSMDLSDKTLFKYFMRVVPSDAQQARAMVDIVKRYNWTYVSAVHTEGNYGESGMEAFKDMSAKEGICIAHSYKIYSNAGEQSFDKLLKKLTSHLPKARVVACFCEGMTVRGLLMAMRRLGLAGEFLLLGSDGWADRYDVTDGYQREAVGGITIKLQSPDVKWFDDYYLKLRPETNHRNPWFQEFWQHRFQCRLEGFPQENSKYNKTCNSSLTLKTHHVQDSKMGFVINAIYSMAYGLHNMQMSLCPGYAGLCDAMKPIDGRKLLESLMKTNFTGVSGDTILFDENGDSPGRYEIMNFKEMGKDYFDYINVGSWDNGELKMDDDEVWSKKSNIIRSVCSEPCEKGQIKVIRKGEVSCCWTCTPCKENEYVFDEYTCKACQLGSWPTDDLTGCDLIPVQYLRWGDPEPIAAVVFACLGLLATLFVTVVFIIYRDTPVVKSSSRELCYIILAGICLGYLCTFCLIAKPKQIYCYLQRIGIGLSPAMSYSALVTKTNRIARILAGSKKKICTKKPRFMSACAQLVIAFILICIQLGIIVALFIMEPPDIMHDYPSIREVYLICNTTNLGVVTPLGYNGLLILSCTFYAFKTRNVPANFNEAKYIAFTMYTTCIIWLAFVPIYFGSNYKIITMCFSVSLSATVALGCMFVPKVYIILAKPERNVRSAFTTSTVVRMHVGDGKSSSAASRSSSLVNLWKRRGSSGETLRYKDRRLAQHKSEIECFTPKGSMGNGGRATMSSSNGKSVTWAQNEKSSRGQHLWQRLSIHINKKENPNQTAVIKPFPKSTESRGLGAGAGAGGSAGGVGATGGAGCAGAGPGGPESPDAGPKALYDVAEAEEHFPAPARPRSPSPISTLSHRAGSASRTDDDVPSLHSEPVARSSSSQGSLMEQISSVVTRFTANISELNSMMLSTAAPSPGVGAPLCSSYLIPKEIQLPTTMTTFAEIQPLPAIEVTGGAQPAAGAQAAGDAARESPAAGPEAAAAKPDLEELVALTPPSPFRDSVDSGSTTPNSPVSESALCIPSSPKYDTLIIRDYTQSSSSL
- Assay Name: Antagonistic activity against metabotropic glutamate receptor 5 (mGluR5) was evaluated
Measured Metric: IC50

>>> result("CC(C)C[C@@H]1[C@H](C(=O)O)[C@H]1C(N)(CC1c2ccccc2Oc2ccccc21)C(=O)O (stereo not given in full)")
"> 100 µM"
>>> result("CCCC[C@@H]1[C@H](C(=O)O)[C@H]1C(N)(CC1c2ccccc2Oc2ccccc21)C(=O)O (stereo not given in full)")
"> 100 µM"
>>> result("C[C@@H]1[C@H](C(=O)O)[C@H]1C(N)(CC1c2ccccc2Oc2ccccc21)C(=O)O (stereo not given in full)")
"> 100 µM"
>>> result("CCC[C@@H]1[C@H](C(=O)O)[C@H]1C(N)(CC1c2ccccc2Oc2ccccc21)C(=O)O (stereo not given in full)")
"> 100 µM"
>>> result("NC(CC1c2ccccc2Oc2ccccc21)(C(=O)O)[C@H]1[C@H](CCc2ccccc2)[C@@H]1C(=O)O (stereo not given in full)")
"> 100 µM"
>>> result("N[C@](CC1c2ccccc2Oc2ccccc21)(C(=O)O)[C@H]1C[C@@H]1C(=O)O")
"8.2 µM"
>>> result("CCCCCCCCC[C@@H]1[C@H](C(=O)O)[C@H]1C(N)(CC1c2ccccc2Oc2ccccc21)C(=O)O (stereo not given in full)")
"5.4 µM"
>>> result("CCCCCC[C@@H]1[C@H](C(=O)O)[C@H]1C(N)(CC1c2ccccc2Oc2ccccc21)C(=O)O (stereo not given in full)")
"56.1 µM"
>>> result("CC[C@@H]1[C@H](C(=O)O)[C@H]1C(N)(CC1c2ccccc2Oc2ccccc21)C(=O)O (stereo not given in full)")
"> 100 µM"

Then this compound:
**Query** Read the entry CCCCC[C@@H]1[C@H](C(=O)O)[C@H]1C(N)(CC1c2ccccc2Oc2ccccc21)C(=O)O (stereo not given in full) and write its reported IC50.
**Result** > 100 µM

---

- Study System: Metabotropic glutamate receptor 4 (Homo sapiens, UniProt Q14833)
- Sequence (Q14833 whole entry): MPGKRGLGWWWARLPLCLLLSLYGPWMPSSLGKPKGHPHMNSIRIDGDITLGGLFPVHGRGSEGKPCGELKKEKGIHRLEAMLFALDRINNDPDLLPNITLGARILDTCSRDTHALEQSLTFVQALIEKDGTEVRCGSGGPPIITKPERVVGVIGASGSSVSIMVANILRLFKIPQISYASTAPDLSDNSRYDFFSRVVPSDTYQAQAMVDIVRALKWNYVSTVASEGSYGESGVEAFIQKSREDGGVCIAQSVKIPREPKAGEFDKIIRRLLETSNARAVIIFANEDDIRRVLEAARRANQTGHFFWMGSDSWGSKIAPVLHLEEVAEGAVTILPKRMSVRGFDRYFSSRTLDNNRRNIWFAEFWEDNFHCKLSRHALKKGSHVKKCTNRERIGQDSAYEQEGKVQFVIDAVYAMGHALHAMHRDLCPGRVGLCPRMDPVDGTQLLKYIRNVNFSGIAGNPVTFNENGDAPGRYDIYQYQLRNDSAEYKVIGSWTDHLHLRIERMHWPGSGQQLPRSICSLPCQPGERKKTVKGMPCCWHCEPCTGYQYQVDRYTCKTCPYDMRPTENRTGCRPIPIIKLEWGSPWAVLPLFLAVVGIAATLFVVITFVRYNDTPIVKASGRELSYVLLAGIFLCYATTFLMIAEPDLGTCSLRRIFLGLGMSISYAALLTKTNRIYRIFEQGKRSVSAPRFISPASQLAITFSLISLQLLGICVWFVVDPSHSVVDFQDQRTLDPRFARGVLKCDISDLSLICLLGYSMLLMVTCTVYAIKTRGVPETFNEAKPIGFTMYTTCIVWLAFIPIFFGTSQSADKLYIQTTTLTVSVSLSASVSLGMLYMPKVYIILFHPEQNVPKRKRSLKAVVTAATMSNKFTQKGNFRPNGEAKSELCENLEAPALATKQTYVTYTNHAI
- Assay Name: Antagonistic activity against metabotropic glutamate receptor 4 (mGluR4) was evaluated
Measured Metric: IC50 (µM)

>>> numeric_value("CCCCC[C@@H]1[C@H](C(=O)O)[C@H]1C(N)(CC1c2ccccc2Oc2ccccc21)C(=O)O (stereo partly drawn)")
9.45
>>> numeric_value("CC(C)C[C@@H]1[C@H](C(=O)O)[C@H]1C(N)(CC1c2ccccc2Oc2ccccc21)C(=O)O (stereo partly drawn)")
8.68
>>> numeric_value("N[C@](CC1c2ccccc2Oc2ccccc21)(C(=O)O)[C@H]1C[C@@H]1C(=O)O")
22
